Where do the numbers come from? From ChEMBL document CHEMBL1201862.

Please provide measured GI50 for the entries that follow.
Test system: SK-MEL-5
assay.info: NCI tumour cell line growth inhibition, 48 h
Active and inactive are the calls of the source. No stated cut-off is given here; in the data, active = GI50 up to about 1.1 µM and inactive = higher.

Please review the following examples before continuing.
CCCc1nc(Cl)c(Cl)c(Cl)n1: 44.5 µM (inactive)
CC(C)C1=Cc2ccc3c(c2C(=O)C1=O)CCCC3(C)C: 12.3 µM (inactive)
Cc1cc(=O)oc2cc(OCc3c(F)cccc3Cl)ccc12: 3.66 µM (inactive)
CC(=O)OC1COC(n2c3ccccc3c3ccc4c5ccccc5[nH]c4c32)C(OC(C)=O)C1OC(C)=O (stereo not given): 36 µM (inactive)

Now for a further compound.
Endpoint output: GI50 of C=CCNC1=C2C[C@@H](C)C[C@@H](OC)C(OC(=O)CCCN(C)C)[C@H](C)/C=C(\C)[C@@H](OC(N)=O)[C@H](OC)/C=C\C=C(/C)C(=O)NC(=CC1=O)C2=O (stereo not given in full) . Value?
2.51 µM (inactive)
